# ASSAY_DETAILS: Aqueous solubility
# Format: physicochemical
# DETAILS: water, Table 3
Could you please report measured solubility for the items listed next?

In [3]: df
Out[3]:
                                   compound  reported_result
0  CC(=O)Nc1c(I)c(NC(C)=O)c(I)c(C(=O)OC(C(=O)OC(C)C)C(=O)OC(C)C)c1I          1 µg/mL
1  CCOC(=O)C(CC)OC(=O)c1c(I)c(NC(C)=O)c(I)c(C(=O)OC(CC)C(=O)OCC)c1I (centres unmarked)        < 1 µg/mL
2  CCOC(=O)c1c(I)c(NC(C)=O)c(I)c(NC(C)=O)c1I        < 5 µg/mL
3  CCOC(=O)CCCCCOC(=O)c1c(I)c(NC(C)=O)c(I)c(NC(C)=O)c1I          2 µg/mL

solubility for `COc1ccc(COC(=O)c2c(I)c(NC(C)=O)c(I)c(NC(C)=O)c2I)cc1` ? 15 µg/mL
